Entry source: ChEMBL document CHEMBL1201862

system: RPMI-8226; assay: NCI tumour cell line growth inhibition, 48 h
The source made the active and inactive calls. No stated cut-off is given here; in the data, active = GI50 up to about 1.1 µM and inactive = higher.
Measured Attribute: GI50

Reference set (3 entries):
{"Molecule": "C/C(CC(O)(C(F)(F)F)C(F)(F)F)=N\\NC(N)=S", "Value Observed": "> 10 µM (inactive)"}
{"Molecule": "COC(=O)C(C(=O)C(=O)Nc1ccc(N)cc1[N+](=O)[O-])c1nc2ccc(Cl)cc2nc1O (stereo not given)", "Value Observed": "> 100 µM (inactive)"}
{"Molecule": "CCCCCCc1cc2cc(C(=O)Nc3ccccc3F)c(=N)oc2cc1O", "Value Observed": "3.66 µM (inactive)"}

Find the measured GI50 of CCCCCCCCCCCCCCCC(=O)OCC(C[As](=O)(O)O)OC(=O)CCCCCCCCCCCCCCC (stereo not given) and report it.
> 100 µM (inactive)

Return GI50 for the following molecule: `CC(=O)Oc1ccc2c(c1)c1c(=O)oc(N(C)C)nc1n2Cc1ccccc1`
> 65 µM (inactive)

Assign GI50 to the following record: `[N-]=[N+]=NI1OC(=O)c2ccccc21`
24 µM (inactive)

Note down GI50 recorded for `CCOC(=O)c1c(NC(=O)c2ccc(OC)cc2)sc2c1CCCC2`
> 100 µM (inactive)

Supply GI50 value. Item: CC(C)OC(=O)Nc1cccc(Cl)c1 [CHLORPROPHAM]
> 100 µM (inactive)

Let me know recorded GI50 for `Oc1nc2c(c(-c3ccc(Br)cc3)n1)COC/C2=C\c1ccc(Br)cc1` , thanks.
> 50 µM (inactive)

Give the reported GI50 for this molecule. CCOC(=O)Cc1nc2c(O)ncnc2n1C1OC(COC(C)=O)C(OC(C)=O)C1OC(C)=O (stereo not given)
> 100 µM (inactive)

* * *

tested on: SK-MEL-5; assay: NCI tumour cell line growth inhibition, 48 h
The source made the active and inactive calls. Rule as the data show it: active = GI50 up to about 1.1 µM and inactive = higher.
Hi! Could you answer with just one of these? class 1 = active, class 0 = inactive

Sample answers from the record:
{"Compound": "CC(C)OC(=S)Nc1ccc(Cl)c(/C=N/OC(C)(C)C)c1", "Category Label": "class 0"}
{"Compound": "Cc1c(C)c2c(c(N)c1C#N)C(=O)N(CCc1ccccc1)C2=O", "Category Label": "class 0"}
{"Compound": "CC(C)(C)NC1=NC(C(F)(F)F)(C(F)(F)F)NC(=O)N1", "Category Label": "class 0"}

# lookup: test call for COC(=O)C(Cc1ccccc1)NC(=O)C(CCCNC(=N)N)NC(=O)OCc1ccccc1 (stereo unspecified)
class 0

Can you look up the reported call for CCOC(=O)Cc1nc2c(O)ncnc2n1C1OC(COC(C)=O)C(OC(C)=O)C1OC(C)=O (stereo unspecified) for me?
class 0

What outcome does the record of this test show for `O=C(O[C@H](/C=C/c1ccccc1)P1(=O)N(Cc2ccccc2)[C@@H]2CCCC[C@H]2N1Cc1ccccc1)c1ccccc1` ?
class 0

Returns: the outcome recorded for `O=Cc1cccc2c1Oc1c(cccc1C(=O)O)S2` in this assay.
class 0

For this compound, state the assay outcome: [O-][S+]1C(=c2ccc(=C3Sc4ccccc4S3)cc2)Sc2ccccc21 (stereo unspecified)
class 0

Call for entry `COc1cc(/C=C/C(=N\NC(=S)NN)c2sc(NNC(C)=O)nc2C)ccc1O` :
class 0

Which outcome did this test record for the compound O=C1c2cc3c(cc2[C@@H]2NC4CCCC14O2)OCO3 (stereo partly specified) ?
class 0

Returns: the outcome recorded for `CCOP(=O)(OCC)/C(C#N)=C/c1cccn1N(C)C` in this assay.
class 0

Which outcome did this test record for the compound `O=[N+]([O-])c1cccc2c1[nH]c1c(-c3ccccc3)nccc12` ?
class 0
